Test system: Saccharomyces cerevisiae
Assay: protein stability index of tFT-peptide fusion (C-terminal peptide) (PSI (0-1 scale)); higher = more stable (slower turnover)
Conditions: genetic background: wild type; temperature: 30 C
Readout type: protein stability index
Answer using only a numeral; do not append any unit.

The sequence CMRPANQEIYPL [YLR157W-D C-terminal 12 aa] showed protein stability index equal to 0.681

The sequence LDAEYYIKFASK [ERD1 C-terminal 12 aa] showed protein stability index equal to 0.69

The sequence KGARSRFQKSYR [RPS16A C-terminal 12 aa] showed protein stability index equal to 0.719

The sequence SFNFDHFDHFDL [YIL054W C-terminal 12 aa] showed protein stability index equal to 0.743

The sequence STSGESFTETQF [ICL2 C-terminal 12 aa] showed protein stability index equal to 0.73

The sequence YSSDSSTLHSKV [FIG1 C-terminal 12 aa] showed protein stability index equal to 0.686

---

Tested on: Saccharomyces cerevisiae
Assay: protein stability index of tFT-peptide fusion (C-terminal peptide) (PSI (0-1 scale)); higher = more stable (slower turnover)
Details: genetic background: wild type; temperature: 30 C
So basically: protein stability index at 0.7 or higher? That is condition met. Lower than 0.7? That is condition not met.

# input Is protein stability index for MITCLTAALKLN [AVT6 C-terminal 12 aa] at or above 0.7?
# output condition not met

# input Is protein stability index for KSCGNNAGARIC [HO C-terminal 12 aa] at or above 0.7?
# output condition not met

# input Is protein stability index for DSQDMERMDSDS [YLR076C C-terminal 12 aa] at or above 0.7?
# output condition met

# input Is protein stability index for TAEPNRNVNQMP [YDL218W C-terminal 12 aa] at or above 0.7?
# output condition not met

# input Is protein stability index for LATMILARMSCS [IRA1 C-terminal 12 aa] at or above 0.7?
# output condition not met

# input Is protein stability index for VVYRHLHTKVSK [HAL5 C-terminal 12 aa] at or above 0.7?
# output condition not met

# input Is protein stability index for YSSRRWRLDTHD [RTC4 C-terminal 12 aa] at or above 0.7?
# output condition met

---

Tested on: Saccharomyces cerevisiae
Assay: protein stability index of tFT-peptide fusion in wild type (PSI (0-1 scale)); higher = more stable (slower turnover)
Settings: genetic background: wild type
So basically: protein stability index at 0.2 or higher? That is Criterion met. Lower than 0.2? That is Criterion not met.

# input Is protein stability index for ARWRVGLWRGPS at or above 0.2?
# output Criterion met

# input Is protein stability index for RSLRVLLPAYFR at or above 0.2?
# output Criterion met

# input Is protein stability index for RLIQPSPVQFLN at or above 0.2?
# output Criterion not met

# input Is protein stability index for VRGAVGGWLLVG at or above 0.2?
# output Criterion not met

# input Is protein stability index for PDKRNHLIQLLN at or above 0.2?
# output Criterion not met

# input Is protein stability index for CTSRGYKFRTNN at or above 0.2?
# output Criterion met

# input Is protein stability index for GLYMCYVGCWFR at or above 0.2?
# output Criterion met

# input Is protein stability index for FSMRWTFRYWVM at or above 0.2?
# output Criterion not met

# input Is protein stability index for GLYMCSVGCWFRE at or above 0.2?
# output Criterion met

# input Is protein stability index for ARWRVGLWFGAS at or above 0.2?
# output Criterion met

---

System: Saccharomyces cerevisiae
Experiment: protein stability index of tFT-peptide fusion (C-terminal peptide) (PSI (0-1 scale)); higher = more stable (slower turnover)
Details: genetic background: wild type; temperature: 30 C
So basically: protein stability index at 0.7 or higher? That is true. Lower than 0.7? That is false.

# input Is protein stability index for VKDKVDAVYSSS [FAA1 C-terminal 12 aa] at or above 0.7?
# output false

# input Is protein stability index for SDMYDSKRLLYV [YPL035C C-terminal 12 aa] at or above 0.7?
# output false

# input Is protein stability index for CKYPTKDIPIFF [RAD17 C-terminal 12 aa] at or above 0.7?
# output true

# input Is protein stability index for SGWSNFEDFFSR [YKL222C C-terminal 12 aa] at or above 0.7?
# output true

# input Is protein stability index for SASGKKKINKNN [ELO1 C-terminal 12 aa] at or above 0.7?
# output true

---

Test system: Saccharomyces cerevisiae
Assay: protein stability index of tFT-peptide fusion (C-terminal peptide) (PSI (0-1 scale)); higher = more stable (slower turnover)
Conditions: genetic background: wild type; temperature: 30 C
I'd appreciate it if you could supply protein stability index values for the items below.
Answer using only a numeral; do not append any unit.

The sequence IGISIRTAQGEL showed protein stability index equal to 0.674

The sequence FSVVGVFNIYGM showed protein stability index equal to 0.621

The sequence LSCALCLLGFRC showed protein stability index equal to 0.647

The sequence GVGGGEAGVIGR showed protein stability index equal to 0.769

The sequence VFACDTRHWSFD showed protein stability index equal to 0.796

The sequence DQVGWVAGVDAR showed protein stability index equal to 0.707

The sequence STHTASAIQWST showed protein stability index equal to 0.661

The sequence AFASVLPSSLSS showed protein stability index equal to 0.641

The sequence KGKRGKKKEESN showed protein stability index equal to 0.652

The sequence PLLPLAASPPPP showed protein stability index equal to 0.683

The sequence PPPCSFTRKRQR showed protein stability index equal to 0.664

The sequence RAEASFFLPKVG showed protein stability index equal to 0.435

The sequence GRASGGGLGRGR showed protein stability index equal to 0.593

The sequence SKEKKRPDNKTF showed protein stability index equal to 0.71

The sequence AGLGGGARQGAL showed protein stability index equal to 0.672

The sequence ACLIHWVVSGAR showed protein stability index equal to 0.677

The sequence VQPAGLEFGPLS showed protein stability index equal to 0.646

The sequence PAPLRSPLVLPS showed protein stability index equal to 0.721

The sequence SSVCVLVSCVLG showed protein stability index equal to 0.482

---

System: Saccharomyces cerevisiae
Assay: protein stability index of tFT-peptide fusion (C-terminal peptide) (PSI (0-1 scale)); higher = more stable (slower turnover)
Conditions: genetic background: wild type; temperature: 30 C
Readout type: protein stability index

The sequence KDEDEEADEDMK [PRE9 C-terminal 12 aa] showed protein stability index equal to 0.694

The sequence SWISKEKRVSEE [HXT2 C-terminal 12 aa] showed protein stability index equal to 0.809

The sequence SPSPKPQHRRKR [ELO2 C-terminal 12 aa] showed protein stability index equal to 0.704

The sequence IYHKDGNKVLKE [YDR391C C-terminal 12 aa] showed protein stability index equal to 0.661

The sequence SDDQILREFLYS [IRE1 C-terminal 12 aa] showed protein stability index equal to 0.7

The sequence ANKNDAISKKVE [ATG23 C-terminal 12 aa] showed protein stability index equal to 0.763

The sequence LCHYLTPYMIIY [YOL106W C-terminal 12 aa] showed protein stability index equal to 0.45

The sequence SGNYFFLDNTGI [RLI1 C-terminal 12 aa] showed protein stability index equal to 0.754

The sequence DYYFRTGVKRLQ [ARP10 C-terminal 12 aa] showed protein stability index equal to 0.732

The sequence GYKDRFGNLNVM [ATP7 C-terminal 12 aa] showed protein stability index equal to 0.687

The sequence SYNDPALADFMP [NRE1 C-terminal 12 aa] showed protein stability index equal to 0.744

The sequence SKLVKEYSVELR [MSF1 C-terminal 12 aa] showed protein stability index equal to 0.663

---

System: Saccharomyces cerevisiae
Assay: protein stability index of tFT-peptide fusion (C-terminal peptide) (PSI (0-1 scale)); higher = more stable (slower turnover)
Conditions: genetic background: wild type; temperature: 30 C
I'd appreciate it if you could supply protein stability index values for the items below.
Answer using only a numeral; do not append any unit.

The sequence LFFLRFSHFFVG showed protein stability index equal to 0.605

The sequence VLFSCLSLCWVF showed protein stability index equal to 0.608

The sequence KPSHNEARKKGG showed protein stability index equal to 0.681

The sequence LRDWCMLGELAR showed protein stability index equal to 0.742

The sequence VPPLPPPGPPTF showed protein stability index equal to 0.699

The sequence PRGFVHLPPPYT showed protein stability index equal to 0.756

The sequence AWGSVVTFLGLR showed protein stability index equal to 0.737

The sequence VEQSYKESVNLD showed protein stability index equal to 0.682

The sequence EVGTSGTWPGSV showed protein stability index equal to 0.714

The sequence VNFVLTLYPYLV showed protein stability index equal to 0.378

The sequence LLPPTLHPPHLP showed protein stability index equal to 0.751

The sequence TGKIRWIPAIRS showed protein stability index equal to 0.64

The sequence VVLGLFCVRMGT showed protein stability index equal to 0.522

The sequence LLRTHTTPKLGG showed protein stability index equal to 0.661

The sequence PPPPLPPPPSPL showed protein stability index equal to 0.653

The sequence IRKIIHIDNGNT showed protein stability index equal to 0.741

The sequence FHGGRGLLLGMN showed protein stability index equal to 0.649

The sequence LPHTRPLPPRVD showed protein stability index equal to 0.704

The sequence LIGTAPGITGFN showed protein stability index equal to 0.661
